# Target of assay: T1, AFP158/HLA-A*02:01 complex (human)
# T1 construct: flowed as analyte in SPR
# Assay text: SPR, fold vs AS170036 VL1VH1;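 note: crude scFv muteins immobilised on a sensor chip, peptide–MHC complex passed over at several concentrations, binding then buffer-driven dissociation, KD estimated from on- and off-rates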
Result type: Affinity increase (fold)
Report as a plain number; the unit fold is understood.

Form field Affinity increase, entry AS170036 VL1VH1-56Y98I108D (scFv, also called 44-AS170036 VL1VH1-56Y98I108D) scFv: QSALTQPRSVSGSPGQSVTISCAGTSSDVGSENYVSWYQQHPGKAPKLMIYQVNKRASGVPDRFSGSKSGNTASLTISGLQAEDEADYYCASYRSSDINIVFGGGTKLTVLGGGGSGGGGSGGGGSEVQLVESGGGLVQPGGSLRLSCAASGFTFSSYAMSWVRQAPGKGLEWVSTINSGTYSPYYADSVKGRFTISRDNSKNTLYLQMNSLRAEDTAVYYCAKNFFDGSWFLDPPAMDYWGQGTLVTVSSHHHHHH : 152

Affinity increase recorded for this binder, AS170036 VL1VH1-56Y98Q108D (scFv, also called 47-AS170036 VL1VH1-56Y98Q108D) scFv: QSALTQPRSVSGSPGQSVTISCAGTSSDVGSENYVSWYQQHPGKAPKLMIYQVNKRASGVPDRFSGSKSGNTASLTISGLQAEDEADYYCASYRSSDQNIVFGGGTKLTVLGGGGSGGGGSGGGGSEVQLVESGGGLVQPGGSLRLSCAASGFTFSSYAMSWVRQAPGKGLEWVSTINSGTYSPYYADSVKGRFTISRDNSKNTLYLQMNSLRAEDTAVYYCAKNFFDGSWFLDPPAMDYWGQGTLVTVSSHHHHHH , is 122
